Recorded activity at 10 µM values for a group of compounds are listed next.
Tested on: SF-539
experiment-description: NCI-60 one-dose SRB screening
Format: cell-based
measurement-parameters: Homo sapiens, SF-539, CNS Cancer, 10 µM one dose, 48 h, read-out: growth percentage
Return type: number; implicit unit %.

Observe how each entry below is paired with its result.
compound="Cc1nn(-c2ccccc2)c2ncnc(Nc3ccc(OCc4c(-c5ccccc5)no[n+]4[O-])cc3)c12 [6c]" target_or_system=SF-539 measurement=96.2
compound="Cc1nn(-c2ccc(Br)cc2)c2ncnc(Nc3ccc(OCc4c(-c5ccccc5)no[n+]4[O-])cc3)c12 [6g]" target_or_system=SF-539 measurement=90.4
compound="Cc1nn(-c2ccccc2)c2nc(CCl)[nH]c(=O)c12 [13b]" target_or_system=SF-539 measurement=36.9
compound="[O-][n+]1onc(-c2ccccc2)c1CNc1ccc(Nc2nc(C(F)(F)F)nc3c2cnn3-c2ccc(Br)cc2)cc1 [12b]" target_or_system=SF-539 measurement=68.3

Record Cc1nn(-c2ccccc2)c2nc(C(F)(F)F)nc(Nc3ccc(NCc4c(-c5ccccc5)no[n+]4[O-])cc3)c12 [12a] . Reported activity at 10 µM: 78.1

Record Cc1nn(-c2ccccc2)c2nc(CNc3ccc(NCc4c(-c5ccccc5)no[n+]4[O-])cc3)[nH]c(=O)c12 [14b] . Reported activity at 10 µM: 99.4

* * *

Recorded activity at 10 µM values for a group of compounds are listed next.
Test system: M14
experiment-description: NCI-60 one-dose SRB screening
Format: cell-based
measurement-parameters: Homo sapiens, M14, Melanoma, 10 µM one dose, 48 h, read-out: growth percentage
Number first, unit second.

compound=Cc1nc(Nc2ccc(OCc3c(-c4ccccc4)no[n+]3[O-])cc2)c2cnn(-c3ccc(Br)cc3)c2n1 target_or_system=M14 measurement=94.2%

Record Cc1nn(-c2ccc(Br)cc2)c2nc(CNc3ccc(NCc4c(-c5ccccc5)no[n+]4[O-])cc3)[nH]c(=O)c12 [14c] . Reported activity at 10 µM: 107%

Record Cc1nn(-c2ccc(Br)cc2)c2ncnc(Nc3ccc(OCc4c(-c5ccccc5)no[n+]4[O-])cc3)c12 . Reported activity at 10 µM: 94%

Record O=c1[nH]c(CNc2ccc(NCc3c(-c4ccccc4)no[n+]3[O-])cc2)nc2c1cnn2-c1ccccc1 [14a] . Reported activity at 10 µM: 80%

* * *

System: SF-268
experiment-description: NCI-60 one-dose SRB screening
Type: cell-based
measurement-parameters: Homo sapiens, SF-268, CNS Cancer, 10 µM one dose, 48 h, read-out: growth percentage
Recorded activity at 10 µM values for a group of molecules are listed next.
Return type: number; implicit unit %.

molecule="Cc1nn(-c2ccccc2)c2nc(C(F)(F)F)nc(Nc3ccc(NCc4c(-c5ccccc5)no[n+]4[O-])cc3)c12 [12a]" measurement=68.6
molecule=Nc1ccc(NCc2c(-c3ccccc3)no[n+]2[O-])cc1 measurement=101
molecule="Cc1nn(-c2ccccc2)c2nc(CCl)[nH]c(=O)c12 [13b]" measurement=106
molecule=Cc1nc(Nc2ccc(OCc3c(-c4ccccc4)no[n+]3[O-])cc2)c2cnn(-c3ccc(Br)cc3)c2n1 measurement=99.9

Record Cc1nc(Nc2ccc(OCc3c(-c4ccccc4)no[n+]3[O-])cc2)c2cnn(-c3ccccc3)c2n1 . Reported activity at 10 µM: 103
